assay: Clearance in Sprague-Dawley rat at 1 mg/kg, iv; format: ADME, organism-based; set-up: dose 1 mg/kg, route intravenous; details: in vivo
result type: clearance (mL/min/kg)

>  <compound>
CN1CCCC1COc1cc(Nc2nc3cc(Oc4ccnc5[nH]ccc45)ccc3o2)ccc1Cl (single isomer, unassigned)

>  <clearance [mL/min/kg]>
20.7

$$$$
>  <compound>
CN1CCC[C@@H]1COc1cc(Nc2nc3cc(Oc4ccnc5ccccc45)ccc3[nH]2)ccc1C(F)(F)F

>  <clearance [mL/min/kg]>
16.7

$$$$

(P) COc1cc2nccc(Oc3ccc4oc(Nc5ccc(Cl)c(CN6CCN(C)CC6)c5)nc4c3)c2cc1OC
(Q) COc1cc2ncnc(Oc3ccc4oc(Nc5ccc(Cl)c(OC[C@@H]6CCCN6C)c5)nc4c3)c2cc1OC
(R) CNC(=O)c1cc(Oc2ccc3oc(Nc4ccc(Cl)c(OC[C@@H]5CCCN5C)c4)nc3c2)ccn1
// query Returns the items ordered by clearance, from maximum to minimum. Sort and list the labels as requested.
// result R, P, Q
(R: 56.7 mL/min/kg, P: 27.2 mL/min/kg, Q: 14.8 mL/min/kg)

###

molecular target: Vascular endothelial growth factor receptor 2 (Homo sapiens); assay: Inhibition of KDR phosphorylation
Sequence (P35968 whole entry): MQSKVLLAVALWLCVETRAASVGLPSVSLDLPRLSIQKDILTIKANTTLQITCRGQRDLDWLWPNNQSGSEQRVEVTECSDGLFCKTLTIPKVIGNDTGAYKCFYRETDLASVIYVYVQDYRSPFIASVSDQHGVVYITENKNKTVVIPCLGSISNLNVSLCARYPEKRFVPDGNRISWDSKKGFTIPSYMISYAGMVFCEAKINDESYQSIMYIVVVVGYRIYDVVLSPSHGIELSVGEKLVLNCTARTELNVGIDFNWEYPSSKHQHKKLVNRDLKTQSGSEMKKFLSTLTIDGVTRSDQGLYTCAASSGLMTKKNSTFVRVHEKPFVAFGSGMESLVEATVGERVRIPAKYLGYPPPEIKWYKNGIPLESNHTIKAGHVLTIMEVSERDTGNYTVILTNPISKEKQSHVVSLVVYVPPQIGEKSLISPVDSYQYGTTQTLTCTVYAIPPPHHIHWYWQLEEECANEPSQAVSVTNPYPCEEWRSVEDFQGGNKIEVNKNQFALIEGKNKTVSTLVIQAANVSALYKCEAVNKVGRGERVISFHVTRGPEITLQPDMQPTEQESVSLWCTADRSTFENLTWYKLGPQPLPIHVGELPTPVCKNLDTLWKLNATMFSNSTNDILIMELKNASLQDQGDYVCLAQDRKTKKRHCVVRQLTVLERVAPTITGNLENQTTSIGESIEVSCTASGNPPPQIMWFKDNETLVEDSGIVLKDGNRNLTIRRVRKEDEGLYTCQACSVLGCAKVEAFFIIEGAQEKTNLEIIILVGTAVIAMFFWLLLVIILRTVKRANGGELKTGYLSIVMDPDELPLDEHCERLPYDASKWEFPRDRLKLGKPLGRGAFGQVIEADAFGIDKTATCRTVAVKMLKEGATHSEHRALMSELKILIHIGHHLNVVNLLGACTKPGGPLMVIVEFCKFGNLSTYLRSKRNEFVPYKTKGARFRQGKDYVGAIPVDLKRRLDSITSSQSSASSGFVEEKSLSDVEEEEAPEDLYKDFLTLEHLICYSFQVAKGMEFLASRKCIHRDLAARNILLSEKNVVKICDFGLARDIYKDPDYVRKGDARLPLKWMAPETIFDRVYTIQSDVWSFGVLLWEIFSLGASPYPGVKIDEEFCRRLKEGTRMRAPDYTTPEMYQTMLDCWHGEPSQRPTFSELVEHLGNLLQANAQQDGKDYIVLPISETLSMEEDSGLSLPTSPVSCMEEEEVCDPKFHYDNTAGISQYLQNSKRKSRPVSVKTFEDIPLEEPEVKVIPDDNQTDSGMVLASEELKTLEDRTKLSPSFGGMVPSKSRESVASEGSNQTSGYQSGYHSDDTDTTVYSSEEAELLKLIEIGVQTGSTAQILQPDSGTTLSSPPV
result type: Ki (nM)

(P) CN1CCN(Cc2cc(Nc3nc4cc(Oc5ccnc6[nH]ccc56)ccc4o3)ccc2Cl)CC1
(Q) CNC(=O)c1cc(Oc2cc(Cl)c3oc(Nc4ccc(Cl)c(CN5CCN(C)CC5)c4)nc3c2)ccn1
(R) CNC(=O)c1cc(Oc2ccc3oc(Nc4ccc(Cl)c(CN5CCOCC5)c4)nc3c2)ccn1
(S) CNc1nccc(Oc2ccc3oc(Nc4ccc(Cl)c(CN5CCN(C)CC5)c4)nc3c2)n1
(T) COc1cc2nccc(Oc3ccc4oc(Nc5ccc(Cl)c(CN6CCN(C)CC6)c5)nc4c3)c2cc1OC
// query Falling order of Ki, please. Sort and list the labels as requested.
// result S, Q, R, P, T

(1) CN1CCN(Cc2cc(Nc3nc4cc(Oc5ccnc6ccccc56)ccc4[nH]3)ccc2Cl)CC1
(2) CNc1cc(Oc2ccc3oc(Nc4ccc(Cl)c(CN5CCN(C)CC5)c4)nc3c2)ncn1
(3) CN1CCC[C@@H]1COc1cc(Nc2nc3cc(Oc4ccnc5ccccc45)ccc3[nH]2)ccc1C(F)(F)F
(4) CN1CCN(Cc2cc(Nc3nc4ccc(Oc5ccnc6[nH]ccc56)cc4[nH]3)ccc2Cl)CC1
// query rank_up(items): orders items by reported Ki in ascending numerical order. Sort and list the labels as requested.
// result 3, 1, 4, 2
(3: 1 nM, 1: 2 nM, 4: 3 nM, 2: 20 nM)

###

molecular target: Vascular endothelial growth factor receptor 2 (Homo sapiens); experiment: Inhibition of KDR phosphorylation
pKi: −log10 of the molar value.
result type: pKi

Here are 2 compounds together with their reported answers.
>  <smiles representation>
CNC(=O)c1cc(Oc2cc(F)c3oc(Nc4ccc(Cl)c(OC[C@@H]5CCCN5C)c4)nc3c2)ccn1

>  <result type>
pKi

>  <numeric value>
8.52

$$$$
>  <smiles representation>
CNC(=O)c1cc(Oc2ccc3oc(Nc4ccc(Cl)c(CN5CCN(C)CC5)c4)nc3c2)ccn1

>  <result type>
pKi

>  <numeric value>
8.40

$$$$

(A) CSc1nccc(Oc2ccc3[nH]c(Nc4ccc(Cl)c(CN5CCN(C)CC5)c4)nc3c2)n1
(B) CNC(=O)c1cc(Oc2ccc3c(c2)nc(Nc2ccc(Cl)c(CN4CCN(C)CC4)c2)n3C)ccn1
(C) FC(F)(F)c1cc(Nc2nc3ccc(Oc4ccnc5[nH]ccc45)cc3[nH]2)ccc1Cl
// query Returns the items ordered by pKi, from maximum to minimum. Sort and list the labels as requested.
// result B, C, A
(B: 8.00, C: 7.32, A: 6.89)
